Assign residual activity to each entry below.
target: GSK3B (human) (UniProt P49841); experiment: radiometric filter-binding kinase assay, Kinase HotSpot; settings: compound 0.5 µM; ATP 10 µM
Sequence (P49841 whole entry, looked up): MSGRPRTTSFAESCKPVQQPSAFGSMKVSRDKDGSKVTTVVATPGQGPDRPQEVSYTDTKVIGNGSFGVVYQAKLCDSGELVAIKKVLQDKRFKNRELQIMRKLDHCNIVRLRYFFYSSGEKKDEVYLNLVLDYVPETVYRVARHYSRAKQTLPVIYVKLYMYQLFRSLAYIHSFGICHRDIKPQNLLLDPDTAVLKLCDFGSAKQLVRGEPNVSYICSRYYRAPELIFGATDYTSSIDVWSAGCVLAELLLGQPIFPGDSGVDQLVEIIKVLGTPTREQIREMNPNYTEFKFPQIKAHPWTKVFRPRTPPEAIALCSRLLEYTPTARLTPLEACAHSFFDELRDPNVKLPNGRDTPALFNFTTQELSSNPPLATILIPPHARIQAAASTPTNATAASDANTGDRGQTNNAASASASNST
Give bare numbers, in %.

| smiles-representation | residual activity (%) |
| --- | --- |
| O=c1cc(N2CCOCC2)oc2c1ccc1ccccc12 | 124 |
| N#C/C(=C(/N)Sc1ccc(N)cc1)c1ccccc1C(F)(F)F | 102 |
| CCOC(=O)c1c(C)[nH]c(/C=C2\C(=O)Nc3ccccc32)c1C | 105 |
| Oc1cccc(-c2nc(N3CCOCC3)c3oc4ncccc4c3n2)c1 | 94.8 |
| Nc1ncnc2c1c(-c1ccc(Oc3ccccc3)cc1)cn2C1CCCC1 | 99.2 |

Now for the molecule whose residual activity we want.
Task: Dear colleague, I am looking for the recorded residual activity of the following molecule: CCCC(=O)Oc1ccc2[nH]c(C(=O)c3cc4ccccc4[nH]3)cc2c1
Result: 94
